Reference for the values: patent US20260315416A1

experiment: Equilibrium (saturation) solubility in water
Type: physicochemical
testSettings: room temperature, HPLC
# reported solubility thermodynamic at 24 h; entries follow

>  <molecule>
O=C(O)[C@@H](O)Cc1ccccc1 [L-PLA]

>  <solubility thermodynamic at 24 h, mg/mL>
25.7

$$$$
>  <molecule>
O=C(O)[C@H](O)Cc1ccccc1 [D-PLA]

>  <solubility thermodynamic at 24 h, mg/mL>
33.1

$$$$
